System: HIV-1 (strain IIIB)
protocol.text: microbe, parasite or virus in culture
Format: cell-based
condition.label: Human immunodeficiency virus 1, 120 h; MT4 cells infected with HIV-1 strain IIIB, 5 days; lower line of each compound's entry; read-out: IC50 (MT-4 cells)
The entries below are paired with their reported IC50.

COc1ccc(S(=O)(=O)N(C[C@@H](O)[C@H](Cc2ccccc2)NC(=O)O[C@H]2CCOC2)OC2CCCC2)cc1 :: 500 to 1000 nM
O=C(N[C@@H](Cc1ccccc1)[C@H](O)CN(OC1CCCC1)S(=O)(=O)c1ccc2c(c1)OCCO2)OC1CO[C@H]2OCC[C@@H]12 (stereo partly drawn) :: ≤ 100 nM
CC(=O)Nc1nc2ccc(S(=O)(=O)N(C[C@@H](O)[C@H](Cc3ccccc3)NC(=O)OC3COCOC3)OC3CCCC3)cc2s1 :: ≤ 100 nM
O=C(N[C@@H](Cc1ccccc1)[C@H](O)CN(OC1CCCC1)S(=O)(=O)c1cccc(OCCO)c1)O[C@H]1CO[C@H]2OCC[C@H]21 :: ≤ 100 nM
COc1ccc(S(=O)(=O)N(C[C@@H](O)[C@H](Cc2ccccc2)NC(=O)OC(C)(C)C)OC2CCCC2)cc1 :: > 1000 nM

# input molecule: COc1ccc(S(=O)(=O)N(C[C@@H](O)[C@H](Cc2ccccc2)NC(=O)OC(C)(C)C)OCc2ccccc2)cc1 ; wanted: its IC50
> 1000 nM

---

Tested on: HIV-1 (strain IIIB)
protocol.text: microbe, parasite or virus in culture
Assay type: cell-based
condition.label: Human immunodeficiency virus 1, 120 h; MT4 cells infected with HIV-1 strain IIIB, 5 days; lower line of each compound's entry; read-out: IC50 (MT-4 cells)
test.readout: IC50

Please review the following examples before continuing.
CCC(C)ON(C[C@@H](O)[C@H](Cc1ccccc1)NC(=O)OC1COCOC1)S(=O)(=O)c1ccc(OC)cc1 (stereo partly drawn) :: 100 to 500 nM
CC(C)ON(C[C@@H](O)[C@H](Cc1ccccc1)NC(=O)O[C@H]1CO[C@H]2OCC[C@H]21)S(=O)(=O)c1cccc(N)c1 :: ≤ 100 nM

# input molecule: COc1ccc(S(=O)(=O)N(C[C@@H](O)[C@H](Cc2ccccc2)NC(=O)OC(C)(C)C)OCC(C)C)cc1 ; wanted: its IC50
> 1000 nM

---

System: HIV-1 (strain IIIB)
protocol.text: microbe, parasite or virus in culture
Format: cell-based
condition.label: Human immunodeficiency virus 1, 120 h; MT4 cells infected with HIV-1 strain IIIB, 5 days; lower line of each compound's entry; read-out: IC50 (MT-4 cells)
test.readout: IC50

CC(C)ON(C[C@@H](O)[C@H](Cc1ccccc1)NC(=O)OC(C)(C)C)S(=O)(=O)c1ccc2[nH]cnc2c1 [Compound 3] :: > 1000 nM
O=C(N[C@@H](Cc1ccccc1)[C@H](O)CN(OC1CCCCC1)S(=O)(=O)c1ccc2c(c1)OCO2)O[C@H]1CO[C@H]2OCC[C@H]21 [Compound 155] :: ≤ 100 nM
O=C(N[C@@H](Cc1ccccc1)[C@H](O)CN(OC1CCCC1)S(=O)(=O)c1ccc2[nH]ncc2c1)OC1CO[C@H]2OCC[C@@H]12 (stereo partly shown) [Compound 57] :: ≤ 100 nM

# input molecule: CC(C)(C)OC(=O)N[C@@H](Cc1ccccc1)[C@H](O)CN(OC1CCCC1)S(=O)(=O)c1ccc2[nH]c(=O)[nH]c2c1 [Compound 131] ; wanted: its IC50
≤ 100 nM
